- Type: in vivo, human
- experimental.context: male, human, plasma, po, 50 mg, t1/2, opicapone 50 mg capsule, single oral dose, fasted, n=23, mean ± SD
endpoint.name: half-life (h)
The reply should contain only the number, in h.

Exercise: Query (compound): Cc1c(Cl)c(C)[n+]([O-])c(Cl)c1-c1noc(-c2cc(O)c(O)c([N+](=O)[O-])c2)n1 [Opicapone] ; field requested: half-life
Solution: 1.18

====

- Format: in vivo, human
- experimental.context: male, human, plasma, po, 50 mg, tmax, opicapone 50 mg capsule, single oral dose, fasted, n=24, median (min-max)
endpoint.name: Tmax (h)
The reply should contain only the number, in h.

Exercise: Query (compound): `Cc1c(Cl)c(C)[n+]([O-])c(Cl)c1-c1noc(-c2cc(O)c(O)c([N+](=O)[O-])c2)n1` ; field requested: Tmax
Solution: 2
